Molecular target: T1, cardiotoxin 3 (CTX3) (Naja atra (Taiwan cobra), UniProt P60301 22-81)
T1 sequence: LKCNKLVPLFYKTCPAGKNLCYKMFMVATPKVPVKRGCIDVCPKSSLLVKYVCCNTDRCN
Assay: fluorescence quenching titration; 10 mM Tris-HCl pH 7.5, 1 mM EDTA, 100 mM NaCl; temperature not stated; fluorescence with 4 nM aptamer (ex 480/em 520 nm); EMSA with 5 uM aptamer, 20 min, 2% agarose, TAE
Conditions: protein: native; tags: none; label: 5'-FAM, 3'-DABCYL
ASSAY METRIC: Kd
Mention the unit after the number when you answer.

Input GCGAGGTGTTCGAGAGTTAGGGCGACATGACCAAACGTT (ssDNA) [FAM-bgt1-DABCYL] . Output Kd: 2350 nM
